- measurement protocol: Primary qHTS for delayed death inhibitors of the malarial parasite plastid, 96 hour incubation
- condition parameters: P. falciparum luciferase reporter growth; series mostly up to 28.7 µM
Screen size: about 320,000 compounds; about 22,000 (6.9%) were called active. Another 27% or so got no clear call; they are omitted. Calls come from the whole dose curve; as a rule, active = well fitted inhibition curve with a large enough effect; inconclusive = small, poorly fitted or top-dose-only effect, or another doubt; inactive = no such curve, though single readings can be large or run the other way. Many of the other results were omitted from the sample, so actives are more common in it than they were.
Hi there, use one of these labels in your reply, thanks! active, inactive

Illustrative cases are given below, each with its answer.
molecule	assigned class
COc1c(O)ccc2c1-c1c3c(cc4c1C(C2)N(C)CC4)OCO3 (configuration not stated)	inactive
Cc1ccc2oc(=O)c3cnn(CC(=O)N4CCCCCC4)c3c2c1	active

Query: Assay result, entry C=CCn1c(SCC(=O)NC23CC4CC(CC(C4)C2)C3)nc(O)cc1=O — outcome?
Result: inactive

Query: Assay result, entry O=S(=O)([N-]c1nc2ccccc2nc1-[n+]1ccc(Cc2ccccc2)cc1)c1ccc(Br)s1 — outcome?
Result: active

Query: Assay result, entry C=CCn1c(COc2ccccc2)nnc1SCC(=O)NCC(=O)OCC — outcome?
Result: inactive

Query: Assay result, entry CN(CC(=O)Nc1ccc(N2CCOCC2)cc1)CC(=O)Nc1ccccc1[N+](=O)[O-] — outcome?
Result: inactive

Query: Assay result, entry CC1(C)NC(=O)N(CC(=O)N2CCN(S(=O)(=O)c3ccccc3F)CC2)C1=O — outcome?
Result: inactive

Query: Assay result, entry COc1ccc(C(C)(C)C)cc1NC(=O)CCN1C(=O)C2CCCCC2C1=O (configuration not stated) — outcome?
Result: inactive

Query: Assay result, entry CN1CCN(CCNC(=O)Nc2ccccc2[N+](=O)[O-])CC1 — outcome?
Result: active

Query: Assay result, entry Cc1ccc(-c2noc(C3CCCN(C(=O)c4cccc(Cl)c4)C3)n2)o1 (configuration not stated) — outcome?
Result: inactive

Query: Assay result, entry CN(C)CCCNC(=S)N1CCN(c2nc(-c3ccccc3)cs2)CC1 — outcome?
Result: inactive

Query: Assay result, entry CCNS(=O)(=O)c1ccc(CCC(=O)N2CCN(c3ccc(OC)cc3)CC2)cc1 — outcome?
Result: inactive

Query: Assay result, entry Cc1c(C(=O)Nc2ccccn2)oc2ccc(Br)cc12 — outcome?
Result: inactive

Query: Assay result, entry Cc1nc(N)sc1N=Nc1c(C)n(C)n(-c2ccccc2)c1=O — outcome?
Result: inactive

Query: Assay result, entry C=CCn1c(SCC(=O)NC)nnc1C12CC3CC(CC(C3)C1)C2 — outcome?
Result: active

Query: Assay result, entry c1ccc(C2CCC(N3CCC(N4CCCCC4)CC3)CC2)cc1 (configuration not stated) — outcome?
Result: active

###

- measurement protocol: Primary qHTS for delayed death inhibitors of the malarial parasite plastid, 96 hour incubation
- condition parameters: P. falciparum luciferase reporter growth; series mostly up to 28.7 µM
The campaign covered roughly 320,000 compounds. About 22,000 (6.9%) were called active. Not shown: some 27% with an inconclusive outcome. The call rests on the fitted dose curve; in most records, active means well fitted inhibition curve with a large enough effect; inconclusive means small, poorly fitted or top-dose-only effect, or another doubt; inactive means no such curve, though single readings can be large or run the other way. The sample holds actives, similar compounds and a random draw of the others, so the mix is not that of the screen.
Hi there, use one of these labels in your reply, thanks! active, inactive

Illustrative cases are given below, each with its answer.
compound	assigned class
COc1ccc(CCNC(=O)C2CCCN(S(=O)(=O)c3ccc(OC)cc3)C2)cc1 (stereo not given)	inactive
Cc1ccc(/C=C/C(=O)OCC(=O)Nc2cccnc2Cl)cc1	inactive

Query: Assay result, entry O=S(=O)(c1ccc(F)cc1)N1CCN(C(=S)NCc2ccco2)CC1 — outcome?
Result: active

Query: Assay result, entry C=CCn1c(SCn2nnc3ccccc3c2=O)nnc1-c1ccc(Cl)cc1 — outcome?
Result: active

Query: Assay result, entry Nc1nnnn1/N=C/c1cccc(Br)c1 — outcome?
Result: inactive

Query: Assay result, entry C#CC(C)(C)NC(=O)CSc1nc2c(c(=O)n(C)c(=O)n2C)n1CCCC — outcome?
Result: inactive

Query: Assay result, entry Cn1c(=O)c2c(SCC(=O)N3CCOCC3)nc(C3CC3)nc2n(C)c1=O — outcome?
Result: inactive

Query: Assay result, entry CC1CCN(S(=O)(=O)c2ccc3c(c2)n(C)c(=O)n3C)CC1 — outcome?
Result: inactive

Query: Assay result, entry CC1(c2ccc(Cl)cc2Cl)NC(=O)N(CC(=O)Nc2cccnc2Cl)C1=O (stereo not given) — outcome?
Result: inactive

Query: Assay result, entry O=C(Cc1cccs1)NCc1cccc(C(F)(F)F)c1 — outcome?
Result: inactive

Query: Assay result, entry O=C(CN1C(=O)NC2(CCCC2)C1=O)OCCOc1ccc(F)cc1 — outcome?
Result: inactive

Query: Assay result, entry O=C(NCc1ccco1)C1CCCN(S(=O)(=O)c2ccccc2)C1 (stereo not given) — outcome?
Result: inactive

Query: Assay result, entry COc1ccc(C)cc1N(CC(=O)NC(C)c1ccccc1)S(C)(=O)=O (stereo not given) — outcome?
Result: inactive

Query: Assay result, entry N#Cc1ccc(C(=O)OCC(=O)NC(=O)NC2CCCCC2)cc1 — outcome?
Result: inactive

Query: Assay result, entry CCc1nc2ccccc2c(C(=O)NCc2ccc(OC)cc2)c1C — outcome?
Result: inactive

Query: Assay result, entry O=C(O)c1ccc(-n2nc(-c3ccccc3)c3ccccc3c2=O)cc1 — outcome?
Result: inactive

Query: Assay result, entry CC1CCN(S(=O)(=O)c2ccc(S(=O)(=O)NCc3ccco3)cc2)CC1 — outcome?
Result: inactive

Query: Assay result, entry O=C(NC1CCN(C(=S)NCc2ccco2)CC1)c1ccc(F)cc1 — outcome?
Result: active

Query: Assay result, entry CCOC(=O)N1CCN(S(=O)(=O)N2CCCC(C(=O)NCCCN3CCC(C)CC3)C2)CC1 (stereo not given) — outcome?
Result: inactive

Query: Assay result, entry Cc1ccc(C(=O)NC2CCN(C(=O)Nc3ccc(F)cc3)CC2)cc1 — outcome?
Result: inactive

Query: Assay result, entry CC(=O)O[C@]1(C(C)=O)CC[C@H]2[C@@H]3C=C(C)C4=CC(=O)CC[C@]4(C)[C@H]3CC[C@@]21C — outcome?
Result: active

Query: Assay result, entry CC(=O)c1c(C)oc2ccc(NS(=O)(=O)c3ccc(C(=O)O)cc3)cc12 — outcome?
Result: inactive

Query: Assay result, entry O=C(Cn1nnc2ccccc2c1=O)NCc1ccc(Cl)cc1 — outcome?
Result: inactive

Query: Assay result, entry Cc1ccc(OCC(=O)Nc2ccc(C(=O)O)cc2NC(=O)COc2ccc(C)c(C)c2)cc1C — outcome?
Result: inactive

Query: Assay result, entry COc1ccc2oc(C(=O)NCc3ccco3)c(C)c2c1 — outcome?
Result: inactive

Query: Assay result, entry CCN(CC)c1ccc(NC(=O)CN2C(=O)NC3(CCc4ccccc43)C2=O)cc1 (stereo not given) — outcome?
Result: inactive

Query: Assay result, entry CCOC(=O)N1CCN(S(=O)(=O)c2ccc(OC)cc2)CC1 — outcome?
Result: inactive

###

- measurement protocol: Primary qHTS for delayed death inhibitors of the malarial parasite plastid, 96 hour incubation; note: potency is the fitted concentration of half-maximal effect
- condition parameters: P. falciparum luciferase reporter growth; series mostly up to 28.7 µM
The campaign covered roughly 320,000 compounds. About 22,000 (6.9%) were called active. Inconclusive results (about 27%) are left out. Shown is part of a subset that was picked to be rich in actives.
readout: Potency

compound	Potency
COc1cc(OC)c2ccc(=O)oc2c1C(CCN1CCN(c2ccccc2)CC1)c1ccc2c(c1)OCO2 (stereo not given)	9.28 µM (active)
Cc1oc(-c2ccccc2Cl)[n+]([O-])c1C	inactive
Oc1cc2c(cc1CN1CCN(c3ccccc3)CC1)OCO2	inactive
COCCNC(=O)c1ccc2c(c1)ncn2-c1ccc(C)c(Cl)c1	inactive

Query: Find the recorded Potency belonging to COc1ccc(N2CCN(Cc3cc(=O)oc4ccc5ccccc5c34)CC2)cc1 and report it.
Result: inactive

Query: Find the recorded Potency belonging to COC(=O)c1ccc(NS(=O)(=O)c2cc3c4c(c2)C(C)C(=O)N4CCC3)cc1 (stereo not given) and report it.
Result: inactive

Query: Find the recorded Potency belonging to Cc1oc(-c2cccc(Cl)c2)[n+]([O-])c1C and report it.
Result: 5.22 µM (active)

Query: Find the recorded Potency belonging to N#CC1(NC(=O)COC(=O)Cc2n[nH]c(=O)c3ccccc23)CCCCC1 and report it.
Result: inactive

Query: Find the recorded Potency belonging to CCN1CCN(CCNC(=O)c2ccc3c(c2)NC(=O)/C(=C\c2ccc(OC)c(OC)c2)S3)CC1 and report it.
Result: inactive

Query: Find the recorded Potency belonging to Cn1c2ccccc2c(=O)c2c(=O)n(Cc3ccco3)c(COc3ccccc3)nc21 and report it.
Result: 7.38 µM (active)

###

- measurement protocol: Primary qHTS for delayed death inhibitors of the malarial parasite plastid, 96 hour incubation; note: potency is the fitted concentration of half-maximal effect
- condition parameters: P. falciparum luciferase reporter growth; series mostly up to 28.7 µM
About 22,000 (6.9%) of roughly 320,000 compounds were called active. Roughly 27% stayed inconclusive and do not appear here. Shown is part of a subset that was picked to be rich in actives.
readout: Potency

Please review the following examples before continuing.
compound	Potency
[2H]C(CCOS(N)(=O)=O)c1ccccc1 (configuration not stated)	inactive
COc1cccc(-c2nnc(NC(=O)c3ccc(S(=O)(=O)N(CC(C)C)CC(C)C)cc3)o2)c1	1.65 µM (active)
CC1CC(C)CN(c2ccc(S(=O)(=O)N3CCOCC3)cc2)C1 (configuration not stated)	inactive
CCOc1ccc(C(CC(=O)O)NC(=O)Cc2ccccc2)cc1OC (configuration not stated)	inactive
COc1cccc(NC(=O)C(Sc2nc3ccccc3c(=O)n2CC(C)C)c2ccccc2)c1 (configuration not stated)	2.62 µM (active)

Query: Find the recorded Potency belonging to CCCNC(=O)NCc1ccc(N2CCCC2=O)cc1 and report it.
Result: inactive

Query: Find the recorded Potency belonging to CC(CN1CCCCC1)c1ccccc1 (configuration not stated) and report it.
Result: inactive

Query: Find the recorded Potency belonging to COc1ccc(-n2nnnc2SCC(=O)Nc2ccccc2)cc1 and report it.
Result: inactive

Query: Find the recorded Potency belonging to Cc1[nH]c2ccccc2c1C(=O)CSCC(=O)O and report it.
Result: inactive

Query: Find the recorded Potency belonging to O=C(Nc1nnc(-c2ccco2)o1)c1ccc(S(=O)(=O)N2CCOCC2)cc1 and report it.
Result: inactive

Query: Find the recorded Potency belonging to CC(=O)N1CC[n+]2c(-c3ccc([N+](=O)[O-])cc3)csc21 and report it.
Result: inactive

Query: Find the recorded Potency belonging to Fc1ccc(-c2csc(-c3ccc(C4SCCS4)cc3)n2)cc1F and report it.
Result: inactive

Query: Find the recorded Potency belonging to COc1ccccc1OCCNC(=O)CCNC(=O)c1ccccc1Cl and report it.
Result: inactive

Query: Find the recorded Potency belonging to COC(=O)c1ccc2c(=O)n(CCN3CCOCC3)c(SCC(=O)Nc3cccc(OC)c3)nc2c1 and report it.
Result: 13.1 µM (active)

Query: Find the recorded Potency belonging to Cc1ccc(C(=O)Oc2ccc(C(=S)N3CCOCC3)cc2)cc1 and report it.
Result: inactive

Query: Find the recorded Potency belonging to O=C(COc1ccccc1)Nc1nonc1NC(=O)COc1ccccc1 and report it.
Result: inactive

Query: Find the recorded Potency belonging to CCCCn1c(N)c(N(CC(C)C)C(=O)c2cccc(S(=O)(=O)N3CC(C)OC(C)C3)c2)c(=O)[nH]c1=O (configuration not stated) and report it.
Result: inactive

Query: Find the recorded Potency belonging to Cc1ccc(SCCC(=O)NCc2ccccn2)cc1 and report it.
Result: inactive

Query: Find the recorded Potency belonging to CCOc1ccc(C(CC(=O)O)NC(=O)COc2ccccc2)cc1 (configuration not stated) and report it.
Result: 10.4 µM (active)

Query: Find the recorded Potency belonging to Cn1c(SCC(=O)N2CCCC2)nnc1-c1ccc2c(c1)OCO2 and report it.
Result: inactive

Query: Find the recorded Potency belonging to COc1cccc(NC(=O)Cn2c3ccccc3c3nc4n(c(=O)c32)CCS4)c1 and report it.
Result: inactive

Query: Find the recorded Potency belonging to Cc1[nH]c2ccccc2c1C(=O)C(C)Sc1nnc(C2CC2)o1 (configuration not stated) and report it.
Result: 4.15 µM (active)
